assay: Preliminary experiments: blood half-life after intravenous administration; type: in vivo; settings: blood; rats and rabbits, intravenous administration
OBSERVABLE: half-life (min)
# value in min; strip the unit string

Just so you know, measured half-life for C=Cc1c(C)c2cc3nc(cc4[nH]c(cc5nc(cc1[nH]2)C(C)=C5CCC(=O)NC(CC(=O)O)C(=O)O)c(CCC(=O)NC(CC(=O)O)C(=O)O)c4C)C(C)(O)C3=CC=NO (stereo not shown) [Compound (I)] came out at 30

---

assay: Laser irradiation to extirpated organ: distribution (cancer/organ ratio) by surface fluorescence, N2-pulsed laser, mice bearing Colon 26; format: in vivo, CDF1 mice; settings: mouse, tumor/plasma; 12 hr; sodium salt, 10 mg/kg intravenous
I'd be grateful if you could share measured Kp at 12 h for these entries.
Simply state the number, no unit and no words.

Short answer for C=Cc1c(C)c2cc3nc(cc4[nH]c(cc5nc(cc1[nH]2)C(C)(O)C5=CC=NO)c(C)c4CCC(=O)NC(CC(=O)O)C(=O)O)C(CCC(=O)NC(CC(=O)O)C(=O)O)=C3C (centres unmarked) [Compound (II), reference compound] : Kp at 12 h was 0.66

Kp at 12 h in this record for C=Cc1c(C)c2cc3nc(cc4[nH]c(cc5nc(cc1[nH]2)C(C)=C5CCC(=O)NC(CC(=O)O)C(=O)O)c(CCC(=O)NC(CC(=O)O)C(=O)O)c4C)C(C)(O)C3=CC=NO (centres unmarked) : 2.37
